EXPERIMENTAL SYSTEM: T1, human Claudin 18.2 (hCLDN18.2) (human, UniProt P56856-2 1-261)
T1 construct: whole, on cells; also called CLDN18A2; claudin 18 splice variant 2
ASSAY: FACS, PDX-hCLDN18.2 gastric cancer tumor tissue-derived cells
METRIC NAME: log10 of EC50 (log10 of the value in nM)

{"columns": ["BINDER", "log10 of EC50"],
 "data": [
  ["ch-76D11 (antibody, V domains shown, also called chimeric antibody of clone 76D11) VH: QVQLQQSGAELMKPGASVKLSCKASGYTFTGYWIEWIKQRPGHGLEWIGEILPGSGSIKYNEKFKDKATFTADTSSNTAYMQLSSLTTEDSAIYYCARKGLRGNSFDYWGQGTTLTVSS VL: DIVMTQSPSSLTVTAGEKVTMSCKSSQSLLNSGNQKNYLTWYQQKPGQPPKRLIYWASTRESGVPDRFTGSGSGTDFTLTISSVQAEDLAVYYCQNDYYYPFTFGSGTKLEIK", 1.09],
  ["ch-42D2 (antibody, V domains shown, also called chimeric antibody of clone 42D2) VH: EVQLQQSGPVLVKPGASVKMSCKASGYTFTDYQMNWVKQSHGKSLEWIGFINPYNGGIRYNQKFKGKATLTVDKSSSTAYMELNSLTSEDSAVYYCATIYFGNSFANWGQGTLVTVSA VL: DIVMTQSPSSLTVTAGEKVTMSCKPSQSLLNSGNQKNYLTWYQQKPGQPPRLLIYWASTRESGVPDRFTGSGSGTDFTLTISSVQAEDLAVYYCQNDYIYPYTFGGGTNLEIK", 0.87],
  ["ch-252F11 (antibody, V domains shown, also called chimeric antibody of clone 252F11) VH: EIQLVESGGGLVRPGGSLKLSCAASGFSFKNYVMSWVRQSPERRLEWVAEIRTGGDYTYYVDTVTGRFTISRDNAKNTLYLEMTSLRSEDTATYYCARVGYGNSLDYWGQGTTLTVSS VL: DIVMTQSPSSLTVTAGEKVTMSCKSSQSLLNSGNQKNYLTWYQQKPGQPPKLLIYWASTRESGVPDRFTGSGSGTDFTLTISSVQAEDLAVYSCQNNYFYPLTFGAGTELELK", 1.20],
  ["ch-59F9 (antibody, V domains shown, also called chimeric antibody of clone 59F9) VH: QVQLQQSGAELMKPGASVKLPCKASGYTLTGYWIEWLKQRPRHGLEWIGEILLGSGSIKYNVKFKDKATFTADTSSNTAYMQLNSLTTEDSAIYYCARKGLRGNSFDYWGQGTTLTVSS VL: DIVMTQSPSSLTVTAGEKVTMSCKSSQSLLNSGNQKSYLTWYQQKPGQPPKRLIYWASTRESGVPDRFTGSGSGTDFTLTISSVQAEDLAVYYCQNDYYYPFTFGSGTKLEIK", 1.09],
  ["ch-299B2 (antibody, V domains shown, also called chimeric antibody of clone 299B2) VH: QVQLKQSGPELVRPGASVKLSCKTSGYIFTNYWIHWVKQRSGQGLEWVVRIYPGTGNTYYNEKFTGKATLTADKSSSTAYMQLSSLKYEDSAVYFCSREGYGKGNSMDYWGQGTSVTVSS VL: DIVMTQSPSSLTVTAGEKVTMNCKSSQSLLNSGNQKNYLTWYQQKPGQPPKLLFYWASTRESGVPDRFTGSGSGTDFTLTISSVQAEDLAVYHCQNAYYYPYTFGGGTKLEMK", 0.76],
  ["ch-251H11 (antibody, V domains shown, also called chimeric antibody of clone 251H11) VH: QVQLKQSGAELVRPGASVKLSCKTSGYTFTTFWIHWIKQRSGQGLEWIAKIYPGTGYTYYNEKFKGKATLTADKSSSAAYMQLSSLKSEDSAVYFCAREGYGKGNAVDFWGQGSSVTVSS VL: DIVMTQSPSSLTVTAGEKVTMSCKSSQSLFNSGNQKNYLTWYQQKPGQPPKLLIYWASTRESGVPDRFTGSGSGTDFTLTIDSVQAEDLAVYYCQNDYTYPSTFGGGTNLEIK", 1.98],
  ["ch-239E9 (antibody, V domains shown, also called chimeric antibody of clone 239E9) VH: QVQLQQSGPELVRPGVSVKISCKGSSYTFTDYTMHWVKQSHAKSLEWIGFIGVYYGNTNYNQKFKGKATMTVDKSSSTAYMELARLTSEDSAVYYCARIGRGNAMDYWGQGTSVTVSS VL: DIVMTQSPSSLTVTAGEKVTMSCKSSQSLLNSGNQKNYLTWYQQKPGQPPKLLIYWASTRESGVPDRFTGSGSGTDFTLTISSVQAEDLAVYNCQNAYSYPFTFGSGTKLEIK", 0.66],
  ["ch-39C8 (antibody, V domains shown, also called chimeric antibody of clone 39C8) VH: QVQLQQSGAGLVKPGASVKISCKASGYAFSSYWMIWVKQRPGKGLEWIGQIYPGDGDTNYNGKFKGKATLTADKSSSTAFMQLSSLTSEDSAVYFCTRIYYGNAFAYWGQGTLVTVSA VL: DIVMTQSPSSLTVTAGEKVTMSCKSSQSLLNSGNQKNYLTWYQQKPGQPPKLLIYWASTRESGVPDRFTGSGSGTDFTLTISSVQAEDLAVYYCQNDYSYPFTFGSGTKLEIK", 1.30],
  ["ch-32G8 (antibody, V domains shown, also called chimeric antibody of clone 32G8) VH: EVHLQQSGPVLVKPGASVKMSCKASGYTFTDYHMNWVKQSHGKSLEWIGVINPYNGGIRYNQKFKGKATLTVDKSSSTAYMELNSLTSEDSAVYYCATIYYGNSFAYWGQGTLVTVSA VL: DIVMTQSPSSLTVTAGEKVTMSCKSSQSLLNSGNQKNYLTWYQQKPGQPPKLLIYWASTRESGVPDRFTGSGSGTDFTLTISSVQAEDLAVYYCQNNYIYPFTFGGGTKLEIR", 0.73],
  ["ch-48H1 (antibody, V domains shown, also called chimeric antibody of clone 48H1) VH: QVQLQQPGAELVKPGTSVKLSCKASGYIFTNYWTHWMKQRPGQGLEWIGMIHPNSGSSNYNEKFKSKATLTVDRSSSTVYMQLRRLTSEDSAVYYCTRIHYGNSMDYWGQGTSVTVSS VL: DIVMTQSPSSLTVTAGEKVTMSCKSSQSLFNSGNQKNYLTWYQQKPGQPPKLLIYWASTWESGVPDRFTGSGSGTDFTLTISSVQAEDLAVYYCQNAYSYPFTFGSGTKLEIK", 0.75],
  ["ch-253C4 (antibody, V domains shown, also called chimeric antibody of clone 253C4) VH: QVQLKQSGAELVRPGASVSLSCKTSGYIFTSYWIHWVKQRSGQGLEWIGRFYPGTGTAYYNENFEGKATLTADRSSSTAYMQLSSLKSDDSAVYFCTREGYGKGNAMDYWGQGTSVTVSS VL: DIVMTQSPSSLTVTTGEKVTLSCKSSQSLLNSGNQKNYLTWYQQKSGQPPELLIYWASTRESGVPDRFTGSGSGTDFTLTVSSVQAEDLAVYYCQNDYYFPFTFGGGTKLEIK", 0.99]
]}
